Provide the reported TGI of each item.
Test system: BT-549 breast
METHOD_NOTES: NCI tumour cell line growth inhibition, 48 h
Report the value in µM with no unit label.

Req: Look up and report measured TGI (BT-549 breast) for the following molecule: "Fc1ccc(-c2nn(-c3ccccc3)cc2-c2nc3ccccc3o2)cc1"
Resp: 21.4

Req: Look up and report measured TGI (BT-549 breast) for the following molecule: O=C1C(C=NCCc2c[nH]c3ccccc23)C(C(F)(F)F)=NN1c1nc2ccccc2s1 (centres undefined)
Resp: 66.3

====

System: SNB-19 CNS
METHOD_NOTES: NCI tumour cell line growth inhibition, 48 h
EXPERIMENTAL_ENDPOINT: TGI

Req: Please list TGI recorded for the compound "N#Cc1c(OCCF)c2ccccc2n2c1nc1ccccc12"
Resp: > 100 µM

Req: Please list TGI recorded for the compound "CC1=C(CCCOC(=O)NCCCl)C2=C(C)C3(CC3)[C@@](C)(O)C(=O)C2=C1"
Resp: > 100 µM

Req: Please list TGI recorded for the compound "CCOC(=O)c1cc(-c2ccc([N+](=O)[O-])cc2)n(-c2ccc(C(=O)O)c(O)c2)c1C"
Resp: 19.1 µM

Req: Please list TGI recorded for the compound CC1CCC[P+](Cc2ccccc2)(c2ccccc2)CC1 (stereo unspecified)
Resp: > 100 µM

Req: Please list TGI recorded for the compound "O=c1c2cc(I)ccc2[nH]c(=S)n1Cc1ccccc1"
Resp: 98.9 µM

Req: Please list TGI recorded for the compound "O=C(/C=C(\[O-])c1ccccc1)CCCCCCC(=O)/C=C(\[O-])c1ccccc1.O=C(/C=C(\[O-])c1ccccc1)CCCCCCC(=O)/C=C(\[O-])c1ccccc1.O=C(/C=C(\[O-])c1ccccc1)CCCCCCC(=O)/C=C(\[O-])c1ccccc1.[La+3].[La+3]"
Resp: > 50 µM

Req: Please list TGI recorded for the compound O=C1CC(c2ccc([N+](=O)[O-])cc2)C2(C(=O)NC(=S)NC2=O)C(c2ccc([N+](=O)[O-])cc2)C1 (stereo unspecified)
Resp: 43.5 µM

Req: Please list TGI recorded for the compound CC1=CCCC(OC(N)=O)C1 (stereo unspecified)
Resp: > 100 µM

Req: Please list TGI recorded for the compound "O=C1/C(=C/c2ccc(F)cc2)CNC/C1=C\c1ccc(F)cc1"
Resp: 6.2 µM

Req: Please list TGI recorded for the compound c1ccc2c(c1)CCCN1CCc3ccccc3C21 (stereo unspecified)
Resp: > 100 µM

Req: Please list TGI recorded for the compound "Cc1cc(C)c2c(n1)S(=O)(=O)N(CCCN1CCN(c3cccc(C(F)(F)F)c3)CC1)/C(=C(\O)c1ccc(Cl)cc1)C2=O"
Resp: 16.6 µM

Req: Please list TGI recorded for the compound O=C1C(C=NCCc2c[nH]c3ccccc23)C(C(F)(F)F)=NN1c1nc2ccccc2s1 (stereo unspecified)
Resp: > 100 µM

Req: Please list TGI recorded for the compound "O=C1N[C@@H]2c3c(csc3Br)C(=O)[C@@H]2O1"
Resp: > 100 µM

Req: Please list TGI recorded for the compound "Clc1ccc(Cc2nc3cc4ccccc4cc3[nH]2)cc1"
Resp: > 100 µM

Req: Please list TGI recorded for the compound "O=[n+]1c(CBr)c(CBr)n([O-])c2ccccc21"
Resp: 38.3 µM

Req: Please list TGI recorded for the compound CC(C)(C)C1=NC(S)NC(CCC(=O)Nc2ccccc2[N+](=O)[O-])=C1 (stereo unspecified)
Resp: > 100 µM

Req: Please list TGI recorded for the compound "OCc1c(-c2cccc3ccccc23)sc(-c2cccc3ccccc23)c1CO"
Resp: 25.4 µM

Req: Please list TGI recorded for the compound O=C1CCC(NC(=O)c2ccccc2)C(=O)N1 (stereo unspecified)
Resp: > 100 µM

Req: Please list TGI recorded for the compound O=c1[nH]c(=O)n(C2CC(O)C(CO)O2)cc1C#Cc1c(F)c(F)c(F)c(F)c1F (stereo unspecified)
Resp: > 100 µM

Req: Please list TGI recorded for the compound "c1ccc(-c2nnc(-c3nn(-c4ccccc4)c4nc5ccccc5nc34)o2)cc1"
Resp: > 100 µM

Req: Please list TGI recorded for the compound "COc1ccccc1NC(=O)c1ccc(/C=C/C(=O)c2nccn2C)cc1"
Resp: 1.59 µM

Req: Please list TGI recorded for the compound "CC[n+]1ccc2c(c1)C(=O)c1nccc3c1c-2nc1ccccc13"
Resp: 0.856 µM

Req: Please list TGI recorded for the compound "CCn1c(=O)c2c3cc(O)ccc3oc2c2ccc(O)cc21"
Resp: > 100 µM

Req: Please list TGI recorded for the compound "CCN1CCN(c2nc(NCCNc3ccnc4cc(Cl)ccc34)c3ccccc3n2)CC1"
Resp: 14 µM

Req: Please list TGI recorded for the compound "COC(=O)c1c2c(c(C)[n+]([O-])c1C)C(=O)C=CC2=O"
Resp: 3.31 µM

Req: Please list TGI recorded for the compound "O=C1c2ccccc2-c2c1c1cc3c(cc1c(=O)n2CCCCl)OCO3"
Resp: > 100 µM

Req: Please list TGI recorded for the compound COC1C=CC23c4cc5c(cc4C(O)OC2CN(C)C3C1)OCO5 (stereo unspecified)
Resp: 7.36 µM

Req: Please list TGI recorded for the compound CC1CC(C#N)=C2NCCCCN2C1=O (stereo unspecified)
Resp: > 100 µM

Req: Please list TGI recorded for the compound "O=C1C(Br)=Cc2c(Cl)sc(Cl)c21"
Resp: 50.7 µM

Req: Please list TGI recorded for the compound "CC(C)c1c(P(=O)(c2ccccc2)c2ccccc2)n(C)c2ccccc12"
Resp: > 100 µM

Req: Please list TGI recorded for the compound "CCN(CC)CCCn1c(=O)c2cccnc2n2c3c(=O)n(C)c(=O)n(C)c3nc12"
Resp: > 100 µM

Req: Please list TGI recorded for the compound CCOC(=O)C1C(=O)CC(O)(c2ccccc2)C(C(=O)OCC)C1c1ccc(OC)cc1 (stereo unspecified)
Resp: > 72.5 µM

Req: Please list TGI recorded for the compound "N#Cc1c2c(c(Nc3ccc(F)cc3)n3c1nc1ccccc13)CCC2"
Resp: 22.1 µM

Req: Please list TGI recorded for the compound "Cc1cc(O)cc(O)c1N=Nc1ccc([N+](=O)[O-])cc1"
Resp: > 100 µM

Req: Please list TGI recorded for the compound "CCOC(=O)c1c(SCCN2CCCC2)n(-c2ccccc2)c(=S)n(-c2ccccc2)c1=O"
Resp: 31.2 µM

Req: Please list TGI recorded for the compound "CC1=CC(=O)N(n2c(C)n[nH]c2=O)C1=O"
Resp: > 100 µM

Req: Please list TGI recorded for the compound "CC1(C)N=C(N)N=C(N)N1c1ccc(CCCCc2ccc(S(=O)(=O)F)cc2Cl)c(Cl)c1"
Resp: 125 µM

Req: Please list TGI recorded for the compound "O=C1NC(=S)NC(=O)C1C(c1ccccc1[N+](=O)[O-])C1C(=O)NC(=S)NC1=O"
Resp: > 100 µM

Req: Please list TGI recorded for the compound "CCCCn1/c(=N/C(=S)N(C)C)ss/c1=N\C(=S)N(C)C"
Resp: > 100 µM

Req: Please list TGI recorded for the compound "COc1cc2c(cc1OC)C(=O)/C(=C/c1cc(C)c(O)c(C)c1)C2"
Resp: > 100 µM

Req: Please list TGI recorded for the compound "Cc1cccc(C[C@@]2(SCc3ccccc3)C(C)(C)[C@@H]3CC[C@@]2(C)C3)n1"
Resp: 33.1 µM
